Entries and their EC50 values follow.
Biological target: PD-1/PD-L1 interaction (Homo sapiens (Human))
Sequence (Q9NZQ7 19-290): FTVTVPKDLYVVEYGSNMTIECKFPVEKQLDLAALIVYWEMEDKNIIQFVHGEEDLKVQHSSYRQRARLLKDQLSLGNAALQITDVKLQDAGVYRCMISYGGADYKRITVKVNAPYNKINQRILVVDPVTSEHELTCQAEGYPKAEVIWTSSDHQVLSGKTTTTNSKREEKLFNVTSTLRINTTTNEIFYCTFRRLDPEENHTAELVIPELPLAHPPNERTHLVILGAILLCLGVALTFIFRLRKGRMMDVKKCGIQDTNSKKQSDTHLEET
Test: PD-1/PD-L1 NFAT Reporter Assay (Jurkat T cells / PD-L1 expressing CHO cells co-culture)
Settings: co-culture 6 hrs at 37° C., luciferase

Ask: Fill in the blank: the reported EC50 of COc1nc(-c2cccc(-c3cccc(-c4cc5c(c(OC)n4)[C@@H](N4CC(C(=O)O)C4)CC5)c3Cl)c2Cl)cnc1CN1CC(OC)C1 (single isomer, unassigned) is ____.
Result: 10 to 100 nM

Ask: Now the same for "COc1nc(-c2cccc(-c3cccc(-c4cc5c(c(OC)n4)[C@@H](NC[C@@H]4CCC(=O)N4)CC5)c3Cl)c2Cl)cnc1CN1CCN(C(C)=O)CC1"
Result: ≤ 10 nM

Ask: Now the same for "COc1nc(-c2cccc(-c3cccc(-c4cc5c(c(OC)n4)[C@@H](NC[C@@H]4CCC(=O)N4)CC5)c3Cl)c2Cl)cnc1CN1C[C@@H](O)[C@@H]1C"
Result: ≤ 10 nM
